Tested on: INF-γ
Assay: Cytokine inhibition in PHA-stimulated primary human PBMCs: INF-γ
Assay type: cell-based
Details: Homo sapiens, PBMC; PBMCs stimulated with PHA, ELISA
Protocol: Cytokine production was measured using commercially available human ELISA assay kits (from Cell Science, Inc.) following the manufacturers instructions.
pIC50: −log10 of the molar value. Structures can show the parent of a compound that is named as a salt.
readout: pIC50

A = COc1ccc2c(c1)nc(C(F)(F)F)n2-c1ccc(NCc2c(F)cccc2F)cc1 [Compound 135, HCl salt]
B = COc1ccc2c(c1)nc(C(F)(F)F)n2-c1ccc(NC(=O)c2c(F)ccc(F)c2F)cc1 [Compound 1]
Hi, I'm comparing two records. Which one has the lower pIC50, A or B ? Lab note: record the label of whichever item you select. B

---

test system: TNF-α; assay: Cytokine inhibition in PHA-stimulated primary human PBMCs: TNF-α; type: cell-based; conditions: Homo sapiens, PBMC; PBMCs stimulated with PHA, ELISA
Counter-ions that a name gives are not always drawn.
readout: IC50 (nM)

A = COc1ccc2c(c1)nc(C(F)(F)F)n2-c1ccc(NC(=O)c2c(F)ccc(F)c2F)cc1
B = COc1ccc2c(c1)nc(C(F)(F)F)n2-c1ccc(NCc2c(F)cccc2F)cc1 [Compound 135, HCl salt]
Form: Entry with minimum IC50 (choose one): A / B Return value: the label identifying the chosen record. B

---

test system: IL-13; assay: Cytokine inhibition in PHA-stimulated primary human PBMCs: IL-13; assay type: cell-based; settings: Homo sapiens, PBMC; PBMCs stimulated with PHA, ELISA
Where a name gives a salt, the structure may show the parent alone.
readout: IC50 (nM)

1 = COc1ccc2c(c1)nc(C(F)(F)F)n2-c1ccc(NC(=O)c2c(F)ccc(F)c2F)cc1 [Compound 1]
2 = COc1ccc2c(c1)nc(C(F)(F)F)n2-c1ccc(NCc2c(F)cccc2F)cc1 [Compound 135, HCl salt]
Looking at 1 and 2 , which one comes out lower in IC50 terms? Please indicate the selected item by its label. 2
